Where these numbers come from: ChEMBL document CHEMBL4052833

compounds and their reported pKi
Target Of Assay: Macrophage migration inhibitory factor (Homo sapiens)
Sequence (P14174 whole entry): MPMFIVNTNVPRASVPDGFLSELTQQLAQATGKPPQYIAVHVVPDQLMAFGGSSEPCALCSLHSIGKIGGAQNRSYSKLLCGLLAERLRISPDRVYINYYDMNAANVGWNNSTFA
Assay Procedure: Inhibition of recombinant human MIF tautomerase activity using 4-HPP as substrate preincubated for 15 mins followed by substrate addition measured after 360 secs
pKi: −log10 of the molar value.

Cc1ccc2oc(=S)n(Cc3cccc(O)c3)c2c1	6.22 to 7.00
Cc1ccc2oc(=S)n(Cc3ccc(F)c(O)c3)c2c1	5.30 to 5.70
Cc1ccc2oc(=S)n(Cc3ccccc3)c2c1	5.52 to 6.00
CC(C)c1ccc2oc(=S)n(Cc3ccccc3)c2c1	5.52 to 6.00

For the next question, use this compound.
Lookup: Query for Macrophage migration inhibitory factor (Homo sapiens): what pKi does the record show for Oc1cc(Cn2c(=S)oc3ccc(C(F)(F)F)cc32)ccc1F ?
Found: 6.00 to 6.52

====

Assay Procedure: Aqueous solubility in pH 7.4 PBS buffer at […] after 24 hrs
Type: physicochemical
Quantity Kind: solubility at 24 h

Lookup: solubility at 24 h lookup needed for Oc1cc(Cn2c(=S)oc3ccc(C(F)(F)F)cc32)ccc1F , thanks.
Found: 3 to 4 µM

====

Tested on: DU-145
Assay Procedure: Inhibition of cell survival in MIF dependent human DU145 cells at 100 uM after 24 hrs by MTT assay
Format: functional
Cond: DU-145, 24 h
molecules and their reported inhibition at 100 µM
Return type: number; implicit unit %.

Oc1cc(Cn2c(=S)oc3ccc(C(F)(F)F)cc32)ccc1F	84
Cc1ccc2oc(=S)n(Cc3ccccc3F)c2c1	28
Cc1ccc2oc(=S)n(Cc3cccc([N+](=O)[O-])c3)c2c1	24
COc1ccc(Cn2c(=S)oc3ccc(C)cc32)cc1	36
Cc1ccc2oc(=S)n(Cc3ccccc3)c2c1	36
S=c1oc2ccc(Cl)cc2n1Cc1ccccc1	34
COc1cccc(Cn2c(=S)oc3ccc(C)cc32)c1	47
Cc1cccc(Cn2c(=S)oc3ccc(C)cc32)c1	32
COC(=O)CC1CC(c2ccc(O)cc2)=NO1 (stereo unspecified)	8
FC(F)(F)c1ccc2oc(=S)n(Cc3ccccc3)c2c1	48

Lookup: inhibition at 100 µM lookup needed for Cc1ccc2oc(=S)n(Cc3ccc(F)c(O)c3)c2c1 , thanks.
Found: 31

Lookup: inhibition at 100 µM lookup needed for Fc1ccc2oc(=S)n(Cc3ccccc3)c2c1 , thanks.
Found: 31

Lookup: inhibition at 100 µM lookup needed for Cc1ccc2oc(=S)n(Cc3ccc(F)cc3)c2c1 , thanks.
Found: 25

Lookup: inhibition at 100 µM lookup needed for Cc1ccc2oc(=S)n(Cc3ccc(Cl)cc3)c2c1 , thanks.
Found: 22

====

Test system: DU-145
Assay Procedure: Inhibition of cell survival in MIF dependent human DU145 cells at 100 uM after 24 hrs by MTT assay
Type: functional
Cond: DU-145, 24 h
Quantity Kind: inhibition at 100 µM (%)
Return type: number; implicit unit %.

Sample records with inhibition at 100 µM:
Cc1ccc2oc(=S)n(Cc3cccc(O)c3)c2c1	46
Cc1ccc2c(c1)oc(=S)n2Cc1ccccc1	24
COc1ccccc1Cn1c(=S)oc2ccc(C)cc21	29
COc1ccc2oc(=S)n(Cc3cccc(O)c3)c2c1	16
Cc1ccc2oc(=S)n(Cc3cccc(F)c3)c2c1	46

Lookup: inhibition at 100 µM lookup needed for Cc1ccc2oc(=S)n(Cc3ccc([N+](=O)[O-])cc3)c2c1 , thanks.
Found: 13

Lookup: inhibition at 100 µM lookup needed for Cc1ccc2oc(=S)n(Cc3ccccc3[N+](=O)[O-])c2c1 , thanks.
Found: 14
